All figures here come from ChEMBL document CHEMBL1149261.

Molecular target: Human immunodeficiency virus type 1 protease (Human immunodeficiency virus 1)
Test: Inhibition of HIV1 protease
measurement label: Ki (µM)
Provide the reading as a plain figure in µM.

Q. Any idea what Ki was measured for COC(=O)[C@H](CC(C)C)NC(=O)[C@@H](NC(=O)CCCOc1ccc2ccc(OCCCC(=O)N[C@H](C(=O)N[C@@H](CC(C)C)C(=O)N[C@H](C(=O)OC)C(C)C)C(C)C)cc2c1)[C@@H](C)O ?
A. 10.3

Q. Query: Ki; subject: CC[C@H](C)[C@H](NC(=O)CCCOc1ccc2ccc(OCCCC(=O)N[C@H](C(=O)N[C@@H](CC(C)C)C(=O)N[C@H](C(=O)OC)C(C)C)C(C)C)cc2c1)C(=O)N[C@H](C(N)=O)[C@@H](C)O
A. 6.2

Q. Consider the compound shown here: CC[C@H](C)[C@H](NC(=O)CCCOc1ccc2ccc(OCCCC(=O)N[C@H](C(=O)N[C@@H](CC(C)C)C(=O)N[C@H](C(=O)OC)C(C)C)C(C)C)cc2n1)C(=O)N[C@H](C(N)=O)[C@@H](C)O What is its recorded Ki?
A. 4.3

---

Molecular target: Human immunodeficiency virus type 1 protease (Human immunodeficiency virus 1, UniProt Q72874)
For each entry below, report its pIC50 value.
Keep it numeric: pIC50 is minus log10 of the concentration in mol/L.

Q. What value of measured pIC50 is listed for COC(=O)[C@H](CC(N)=O)NC(=O)[C@H](CC(C)C)NC(=O)[C@@H](NC(=O)CCCOc1ccc2ccc(OCCCC(=O)N[C@H](C(=O)N[C@@H](CC(C)C)C(=O)N[C@H](C(=O)OC)C(C)C)C(C)C)cc2n1)[C@@H](C)O ?
A. 5.29

Q. Return reported pIC50; argument: COC(=O)[C@@H](NC(=O)[C@H](CC(C)C)NC(=O)[C@@H](NC(=O)CCCOc1ccc2ccc(OCCCC(=O)N[C@@H](CCC(=O)OC(C)(C)C)C(=O)N[C@@H](CC(C)C)C(N)=O)cc2c1)C(C)C)C(C)C
A. 5.96

Q. Any idea what pIC50 was measured for COC(=O)[C@H](CC(C)C)NC(=O)[C@@H](NC(=O)CCCOc1ccc2ccc(OCCCC(=O)N[C@H](C(=O)N[C@@H](CC(C)C)C(=O)N[C@H](C(=O)OC)C(C)C)C(C)C)cc2n1)[C@@H](C)O ?
A. 5.85

Q. Look up pIC50 for this molecule: CC[C@H](C)[C@H](NC(=O)CCCOc1ccc2ccc(OCCCC(=O)N[C@H](C(=O)N[C@@H](CC(C)C)C(=O)N[C@H](C(=O)OC)C(C)C)C(C)C)cc2n1)C(=O)N[C@H](C(N)=O)[C@@H](C)O
A. 5.77

Q. Could you share which pIC50 value was measured for COC(=O)[C@@H](NC(=O)[C@H](CC(C)C)NC(=O)[C@@H](NC(=O)CCCOc1ccc2ccc(OCCCC(=O)N[C@@H](Cc3ccc(O)cc3)C(=O)N[C@@H](CCC(=O)OC(C)(C)C)C(=O)N[C@@H](CC(C)C)C(N)=O)nc2c1)C(C)C)C(C)C ?
A. 6.00

---

Hi there, I'd appreciate the recorded Ki for every entry that follows.
Target: Human immunodeficiency virus type 1 protease (Human immunodeficiency virus 1, UniProt Q72874)
Assay: Inhibition of dimerization of HIV1 protease
Answer with a number only, understood to be in µM.

Q. // Ki lookup, key: COC(=O)[C@@H](NC(=O)[C@H](CC(C)C)NC(=O)[C@@H](NC(=O)CCCOc1ccc2ccc(OCCCC(=O)N[C@@H](CCC(=O)O)C(=O)N[C@@H](CC(C)C)C(N)=O)cc2c1)C(C)C)C(C)C
A. 0.9

Q. Requested field: Ki. Item: COC(=O)[C@H](CC(C)C)NC(=O)[C@@H](NC(=O)CCCOc1ccc2ccc(OCCCC(=O)N[C@H](C(=O)N[C@@H](CC(C)C)C(=O)N[C@H](C(=O)OC)C(C)C)C(C)C)cc2c1)[C@@H](C)O
A. 1.4

Q. Query (molecule): COC(=O)[C@@H](NC(=O)[C@H](CC(C)C)NC(=O)[C@@H](NC(=O)CCCOc1ccc2ccc(OCCCC(=O)N[C@@H](CCC(=O)OC(C)(C)C)C(=O)N[C@@H](CC(C)C)C(N)=O)cc2c1)C(C)C)C(C)C ; field requested: Ki
A. 0.42

Q. I'd like to know its Ki. The molecule in question is CC[C@H](C)[C@H](NC(=O)CCCOc1ccc2ccc(OCCCC(=O)N[C@H](C(=O)N[C@@H](CC(C)C)C(=O)N[C@H](C(=O)OC)C(C)C)C(C)C)cc2n1)C(=O)N[C@H](C(=O)N[C@@H](CC(C)C)C(=O)OC)[C@@H](C)O
A. 0.4

Q. Query: Ki; subject: COC(=O)[C@@H](NC(=O)[C@H](CC(C)C)NC(=O)[C@@H](NC(=O)CCCOc1ccc2ccc(OCCCC(=O)N[C@@H](CCC(=O)OC(C)(C)C)C(=O)N[C@@H](CC(C)C)C(N)=O)nc2c1)C(C)C)C(C)C
A. 0.53

Q. // Ki lookup, key: COC(=O)[C@@H](NC(=O)[C@H](CC(C)C)NC(=O)[C@@H](NC(=O)CCCOc1ccc2ccc(OCCCC(=O)N[C@@H](Cc3ccc(O)cc3)C(=O)N[C@@H](CCC(=O)OC(C)(C)C)C(=O)N[C@@H](CC(C)C)C(N)=O)cc2c1)C(C)C)C(C)C
A. 0.23
